- Test system: LXRa homodimer (NR concentration 270 nM)
- PROCEDURE TEXT: PBM binding z-score (relative to random genomic background probes); higher = stronger binding; sequences stand for … in GC…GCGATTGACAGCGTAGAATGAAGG
Threshold rule: PBM binding z-score greater than or equal to 0.5 is condition met; below that, condition not met.

Decide: is the reported value of PBM binding z-score for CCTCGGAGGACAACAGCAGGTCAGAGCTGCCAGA equal to or greater than 0.5?
condition not met

Decide: is the reported value of PBM binding z-score for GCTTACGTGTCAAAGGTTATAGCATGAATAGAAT equal to or greater than 0.5?
condition not met

Decide: is the reported value of PBM binding z-score for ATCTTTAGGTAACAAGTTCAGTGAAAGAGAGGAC equal to or greater than 0.5?
condition met

Decide: is the reported value of PBM binding z-score for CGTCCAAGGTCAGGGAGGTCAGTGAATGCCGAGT equal to or greater than 0.5?
condition met

Decide: is the reported value of PBM binding z-score for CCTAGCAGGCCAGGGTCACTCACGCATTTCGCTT equal to or greater than 0.5?
condition not met

Decide: is the reported value of PBM binding z-score for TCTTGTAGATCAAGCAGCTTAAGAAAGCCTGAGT equal to or greater than 0.5?
condition not met

----------
- Tested on: PPARg DBDmut:RXRa IVT, anti-PPARg (DBD mutation: PPARg1 K132A/R137A, NR concentration 270 nM, RXRa partner concentration 90 nM)
- PROCEDURE TEXT: PBM binding z-score (relative to random genomic background probes); higher = stronger binding; sequences stand for … in GC…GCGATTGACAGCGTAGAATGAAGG
So I've got a bunch of sequences here, and I need their PBM binding z-score values.
Answer field: number only, no words.

Retrieve PBM binding z-score measured for ACTAGCAGGCCAAGGGTCACTAAAGATTAGTCCG and print it.
0.0188

Retrieve PBM binding z-score measured for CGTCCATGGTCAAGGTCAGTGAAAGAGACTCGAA and print it.
-0.688

Retrieve PBM binding z-score measured for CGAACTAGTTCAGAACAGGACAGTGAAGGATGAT and print it.
0.34

Retrieve PBM binding z-score measured for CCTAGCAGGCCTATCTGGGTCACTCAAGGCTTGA and print it.
-0.467

Retrieve PBM binding z-score measured for ATCGATAGGTCGAAGGTGAGTATACCCACCCGAA and print it.
0.544

Retrieve PBM binding z-score measured for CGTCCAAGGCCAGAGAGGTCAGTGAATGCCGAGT and print it.
-0.198

----------
- Test system: THRa homodimer (NR concentration 90 nM)
- PROCEDURE TEXT: PBM binding z-score (relative to random genomic background probes); higher = stronger binding; sequences stand for … in GC…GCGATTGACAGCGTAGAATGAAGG
PARAMETER MEASURED: PBM binding z-score

Jot down PBM binding z-score (THRa homodimer (NR concentration 90 nM)) of GCTTGTTGGTCAGTAAAAGGTCACACACCGGTCG .
2.15

Jot down PBM binding z-score (THRa homodimer (NR concentration 90 nM)) of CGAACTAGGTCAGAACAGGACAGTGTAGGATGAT .
0.227

Jot down PBM binding z-score (THRa homodimer (NR concentration 90 nM)) of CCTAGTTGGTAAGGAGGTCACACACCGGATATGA .
2.35

Jot down PBM binding z-score (THRa homodimer (NR concentration 90 nM)) of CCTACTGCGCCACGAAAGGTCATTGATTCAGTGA .
1.47

Jot down PBM binding z-score (THRa homodimer (NR concentration 90 nM)) of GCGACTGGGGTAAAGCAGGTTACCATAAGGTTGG .
0.334

Jot down PBM binding z-score (THRa homodimer (NR concentration 90 nM)) of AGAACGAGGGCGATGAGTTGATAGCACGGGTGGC .
-0.71

Jot down PBM binding z-score (THRa homodimer (NR concentration 90 nM)) of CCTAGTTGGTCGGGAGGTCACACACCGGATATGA .
2.93

Jot down PBM binding z-score (THRa homodimer (NR concentration 90 nM)) of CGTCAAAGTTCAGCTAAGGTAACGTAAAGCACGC .
2.11

Jot down PBM binding z-score (THRa homodimer (NR concentration 90 nM)) of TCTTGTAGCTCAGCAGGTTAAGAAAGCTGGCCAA .
-0.926

Jot down PBM binding z-score (THRa homodimer (NR concentration 90 nM)) of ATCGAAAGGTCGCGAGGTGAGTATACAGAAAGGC .
0.86

Jot down PBM binding z-score (THRa homodimer (NR concentration 90 nM)) of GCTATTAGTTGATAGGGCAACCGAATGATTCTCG .
-0.518

Jot down PBM binding z-score (THRa homodimer (NR concentration 90 nM)) of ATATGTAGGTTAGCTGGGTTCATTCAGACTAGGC .
0.442
